Test system: MCF7 breast
Test: NCI-60 one-dose screen, 48 h (100 = growth as untreated, 0 = no growth, -100 = all killed)
Conditions: 10 µM unless noted
This is part of a sample that, as a whole, favours compounds with a hit. Of some 83,000 tested, about 20% had one in any assay.
Can you tell me growth for the items I'm about to list?
All answers are understood in %, so give the number only.

The reported value for `O=Cc1ccc([N+](=O)[O-])s1` in terms of growth is 47

The reported value for `COC(=O)c1cc(-c2ccc(OC)cc2)[nH]c1N/N=C/c1c(Cl)cccc1Cl` in terms of growth is 1.03

The reported value for `CCCCC(=O)Nc1ncc(Cc2ccc(Cl)cc2)s1` in terms of growth is 37.4

The reported value for `Cc1ccccc1NC(=O)c1sc2nc(C)c(C(=O)/C=C/c3ccccc3)cc2c1N` in terms of growth is 9.97

The reported value for N#CC1=C(N)Oc2c(sc3c(Br)cccc23)C1c1ccc(F)cc1 (stereo not drawn) in terms of growth is 12.1

The reported value for Nc1nc(=S)c2ncn(C3OC(COP(=O)(O)O)C(O)C3O)c2[nH]1 (stereo not drawn) in terms of growth is 9.34

The reported value for `N#Cc1cccc(-c2c(-c3ccc4ccccc4c3)oc3ccccc3c2=O)c1` in terms of growth is 20.3

The reported value for O=S(=O)(Nc1ccccc1)c1ccc(C2CC3(Cl)C(Cl)=C(Cl)C2(Cl)C3(Cl)Cl)cc1 (stereo not drawn) in terms of growth is 23.2

The reported value for `CC/C(=C(/c1ccc(Cl)cc1)c1ccc(OCCN2CCCC2)cc1)c1ccc(OC)cc1` in terms of growth is 18.5

The reported value for `O=C(c1cc2ccccc2o1)c1nn(-c2ccccc2)/c(=N/N=Cc2cn(-c3ccccc3)nc2-c2cc3ccccc3oc2=O)s1` in terms of growth is 83.1

The reported value for `CC1=NN(c2nc(SCC(=O)Nc3nc4ccc(C)cc4s3)nc(-c3ccccc3)c2C#N)C(=O)C1` in terms of growth is 96.8

The reported value for `O=S(=O)(Nc1cc(Br)c(O)c2ccccc12)c1ccc(F)cc1` in terms of growth is 49.1

The reported value for `Brc1ccc2[nH]cc(-c3nonc3-c3c[nH]c4ccccc34)c2c1` in terms of growth is 29.3

The reported value for `O=C(O)[C@@H]1c2ccccc2-c2ccccc2[C@H]1C(=O)O` in terms of growth is 94.6

The reported value for `Cc1ccc(/C=C2\CN(C(=O)OC(C)(C)C)C/C(=C\c3ccc(C)cc3)C2=O)cc1` in terms of growth is 15.7

The reported value for `CCOP(=O)(OCC)c1nc(-c2ccccc2)oc1NCc1cccnc1` in terms of growth is 103

The reported value for COc1ccc(C(c2cc(OC)c(OC)c(OC)c2)N2CCN(c3ccccc3)CC2)cc1 (stereo not drawn) in terms of growth is 72.8

The reported value for `N#Cc1c(-c2cccs2)cc(-c2cccnc2)[nH]c1=O` in terms of growth is 92.4

The reported value for `Cc1ccc(-n2c(=S)[nH]c3sc4c(c3c2=O)CCC(=O)C4)cc1` in terms of growth is 14.7

The reported value for `COc1ccc2c(c1)[n+]([O-])c(C(=O)/C=C/C=C(\Cl)c1cc(OC)c(OC)c(OC)c1)c(C)[n+]2[O-]` in terms of growth is 83.4

The reported value for `CN(C)CC(=O)Nc1ccc2ncnc(Nc3ccc(Oc4cccc(C(F)(F)F)c4)c(Cl)c3)c2c1` in terms of growth is 41.6

The reported value for `CCOC(=O)C#Cc1c(C(=O)OCC)nnn1[C@@H]1O[C@H](CO)[C@H]2OC3(CCCCC3)O[C@H]21` in terms of growth is 8.45

The reported value for CC[C@@H](C(=O)[C@@H](C)[C@@H](O)[C@H](C)[C@@H]1O[C@@H]([C@@H](CC)C(=O)NCCc2ccc(F)cc2)CC[C@@H]1C)C1O[C@]2(C=CC(=O)[C@]3(CC[C@@](C)([C@H]4CC[C@](O)(CC)[C@H](C)O4)O3)O2)[C@H](C)C[C@@H]1C (stereo partly drawn) in terms of growth is 18.4

The reported value for `O=C1c2c(c3c4ccc(Br)cc4oc3c3[nH]c4ccccc4c23)C(=O)N1O` in terms of growth is 22.4

The reported value for `O=C(Cn1c(=O)sc2ccccc21)NNS(=O)(=O)c1ccccc1[N+](=O)[O-]` in terms of growth is 96.5

The reported value for `COC(=O)[C@H]1CCCN1C[C@@H](O)CN1C(=O)/C(=C\c2cc(OC)c(OC)c(OC)c2)c2ccccc21` in terms of growth is 70.5

The reported value for `Cc1ccc2c(n1)C(=O)c1[nH]c3ccccc3c1C2=O` in terms of growth is 31.2

The reported value for `CCCNC(=O)Oc1ccc(/C(=C(/C)Cc2ccc(OC)cc2)c2ccc(OCCCN(C)C)cc2)cc1` in terms of growth is 36.3

The reported value for `CCS/C(Nc1ccccc1)=C(\C#N)C(=O)N/N=C/c1ccc(Cl)cc1Cl` in terms of growth is 19.3

The reported value for `COc1ccc(/C=N/NC(=O)CCN2c3ccccc3Sc3ccccc32)cc1` in terms of growth is 42.7

The reported value for `C/C(=C(/c1ccc(Cl)cc1)c1ccc(OCCN2CCCC2)cc1)c1ccc(Cl)cc1` in terms of growth is 34.1

The reported value for `O=C1/C(=C/c2ccc(F)cc2)COc2ccc(O)cc21` in terms of growth is 7.92

The reported value for `COc1ccc(C(=O)Nc2ncc(Cc3ccc(F)cc3)s2)cc1` in terms of growth is 12.3
